assayComment: Intranasal 10 mg Phase 2 studies in women with FSAD: plasma concentration 30 minutes post dose
Type: in vivo, human
conditionNotes: female, human, plasma, inhaled or intranasal; 10 mg intranasal, postmenopausal subjects
experimentalEndpoint: level at 0.5 h (ng/mL)

{"columns": ["compound", "experimentalEndpoint", "valueMeasured"],
 "data": [
  ["CCCC[C@H](NC(C)=O)C(=O)N[C@H]1CC(=O)NCCCC[C@@H](C(=O)O)NC(=O)[C@H](Cc2c[nH]c3ccccc23)NC(=O)[C@H](CCCNC(=N)N)NC(=O)[C@@H](Cc2ccccc2)NC(=O)[C@H](Cc2c[nH]cn2)NC1=O [bremelanotide]", "level at 0.5 h", 93.2]
]}
